- Experiment: HepG2 liver cancer cell viability effects, profiling panel, resazurin fluorescence, 24 h, PK04 Diversity Set (AID 1172); note: test concentration not given here
- Test conditions: higher = more signal
Reported metric: z-score
One number for each entry.

Some compounds with recorded z-score:
COCCCNC(=O)[C@@]1(Cc2ccccc2I)c2ccccc2C(=O)N(Cc2ccccc2C(F)(F)F)[C@H]1c1ccc(CO)cc1; 0.331
COc1cccc(C)c1NC(=O)O[C@H]1[C@H](OC(=O)Nc2ccccc2-c2ccccc2)[C@@H](OC(=O)Nc2ccccc2-c2ccccc2)[C@@H](OC)O[C@@H]1CO; -2.77

Dear colleague, could you please provide z-score for the compounds listed below?
1. C=C(C(=O)CC[C@@H](OC(=O)c1ccccc1-c1ccccc1C(=O)O)c1ccc(OCCO)cc1)C(C)C
2. COCCCNC(=O)[C@@]1(Cc2ccccc2I)c2ccccc2C(=O)N(C2CCCCC2)[C@H]1c1ccc(CO)cc1
3. COc1ccc([Si](C)(C)[C@@H]2[C@@H](CC(=O)N3CCC[C@H]3CO)O[C@]3(C(=O)N(Cc4cccc(N5C(=O)c6cccc7cccc5c67)c4)c4ccccc43)[C@H]2C)cc1
4. COc1ccc(NN2C(C(O)c3ccc(F)cc3)C=CC3C(=O)N(C4CCCCC4)C(=O)C32)cc1 (centres undefined)
5. COC(=O)C(CC#Cc1ccc2c(c1)[C@]1(C(=O)N2)[C@H](C(=O)N2CCCCCCC2)[C@H]2C(=O)O[C@H](c3ccccc3)[C@H](c3ccccc3)N2[C@@H]1c1ccc(OCCO)cc1)C(=O)OC
6. CCCNC(=O)[C@@]1(Sc2ccc(C)cc2)CC(=O)N(Cc2cc(C(F)(F)F)cc(C(F)(F)F)c2)[C@@H]1c1ccc(CO)cc1
7. COC(=O)[C@H]1N=C(c2ccc(OCCCO)cc2)O[C@H]1c1ccccc1N=[N+]=[N-]

**A:**
[-0.304, 1.12, -0.49, -0.598, 0.883, -0.258, 0.249]

Batch: z-score for all items listed.
1. C=CCNC(=O)[C@H]1[C@@H]2C(=O)O[C@@H](c3ccccc3)[C@@H](c3ccccc3)N2[C@@H](c2ccc(OCCO)cc2)[C@]12C(=O)Nc1ccc(C#Cc3ccc(OC)cc3)cc12
2. O=C1N(Cc2ccccc2)c2ccccc2C[C@@]12N=C(c1ccc(OCCCO)cc1)O[C@H]2c1ccccc1

**A:**
1: -1.06; 2: -0.449

###

- Experiment: E. coli acrAB mutant growth effects, primary screen, E. coli filamentation inducers, strain DRC39, OD650, 24 h (AID 1178);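 note: growth measured as culture turbidity by optical density at 650 nm; test concentration not given here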
- Test conditions: higher = more signal, called active from +8 up or from −8 down
Rule: y for z-score not less than 0.9, n for anything less.

COCCCNC(=O)[C@@]1(c2ccc([N+](=O)[O-])cc2)CC(=O)N(C2CCCCC2)[C@@H]1c1ccc(CO)cc1I; n
COc1cc(Cc2cc3c(c(-c4ccccc4)n2)[Si](C(C)C)(C(C)C)OC3)cc(OC)c1OC; y
C=CCNC(=O)[C@H]1[C@@H]2C(=O)O[C@@H](c3ccccc3)[C@@H](c3ccccc3)N2[C@@H](c2ccc(OCCO)cc2)[C@]12C(=O)N(C(=O)OCCOC)c1ccc(C#CCNC(N)=O)cc12; y
C=C(C(=O)CC[C@@H](OC(=O)c1ccccc1-c1ccccc1C(=O)O)c1ccc(OCCO)cc1)C(C)C; n
C=C(C(=O)CC[C@@H](OC(=O)c1cccnc1)c1cccc(OCCO)c1)C(C)C; n
Cc1ccc(S(=O)(=O)N2[C@@H](c3ccccc3)C(C(=O)O)=CC[C@H]2c2ccc(F)cc2)cc1; n

**Q:** State whether the measured z-score reaches 0.9, counting equality as reaching it, for `O=C1c2ccccc2[C@@]2(Cc3ccccc3N(CC(F)(F)F)C2=O)[C@H](c2ccc(CO)cc2)N1Cc1ccccc1`
**A:** n

###

- System under test: Alpha-bungarotoxin (Bungarus multicinctus) (UniProt P60615)
- Sequence (P60615 whole entry, looked up): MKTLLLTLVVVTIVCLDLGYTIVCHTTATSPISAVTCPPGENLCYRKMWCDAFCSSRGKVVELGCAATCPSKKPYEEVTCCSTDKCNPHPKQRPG
- Experiment: alpha-bungarotoxin binders on microarray, profiling panel, artefact control for SMM control protein annotation, biochemical, small-molecule microarray, Alexa647 label, 635/667 nm fluorescence (AID 1117)
- Test conditions: alpha-BTX-A647 binding fluorescence, higher = more signal
Think of 0.2 as a floor: if composite z-score stands on it or above, it is Yes; beneath it, No.

O=C1NC(=O)C2C1C=CC(C(O)C1CCCCC1)N2Nc1ccccn1 (stereo not drawn); Yes
CCOC(=O)C[C@H]1[C@H](OC(=O)Cc2ccc3c(c2)OCO3)[C@@H](NC(=O)CC(C)C)c2cc(OCCCO)ccc2N1C(=O)c1ccc2ccccc2n1; No
O=C1c2ccccc2[C@@]2(Cc3ccccc3N(CC(F)(F)F)C2=O)[C@H](c2ccc(CO)cc2)N1Cc1ccccc1; No
COC(=O)C(CC#Cc1ccc2c(c1)[C@]1(C(=O)N2)[C@H](C(N)=O)[C@H]2C(=O)O[C@H](c3ccccc3)[C@H](c3ccccc3)N2[C@@H]1c1ccccc1OCCO)C(=O)OC; Yes
O=C/C=C/c1ccc(-c2ccccc2)cc1; Yes

**Q:** Exam item: decide whether the reported composite z-score for `CCCCCCc1nc(-c2ccc(OC)nc2)c(C)c2c1[Si](C(C)C)(C(C)C)OC2` is at least 0.2.
**A:** No

**Q:** Could you verify whether the entry `COc1ccc(-c2cc3c(c(CCc4ccccc4)n2)[Si](C(C)C)(C(C)C)O[C@H]3c2ccccc2)cn1` shows composite z-score of no less than 0.2?
**A:** Yes

**Q:** Decide: is the reported value of composite z-score for CCOC(=O)C1=CCC(c2cccn2C(=O)OC(C)(C)C)N(S(=O)(=O)c2ccc(C)cc2)C1 (stereo not drawn) equal to or greater than 0.2?
**A:** Yes

###

- Experiment: anti-His antibody binders, primary screen, artefact control for SMM control protein annotation, biochemical, small-molecule microarray, 635 nm fluorescence (AID 1128);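 note: score merges feature fluorescence with signal-to-noise for each printed compound spot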
- Test conditions: anti-His Alexa647 antibody binding, higher = more signal
Reported metric: composite z-score
Answers are plain numbers.

Worked examples, 3 compounds total:
CN(C)CCCCCCNC(=O)[C@@H]1C[C@@H]2C(=O)N[C@@H](CCCC[N+](C)(C)C)C(=O)N2[C@@H]1c1cccc(OCCO)c1; 2.34
COC(=O)[C@@]1(Cc2ccccc2)[C@H]2c3cc(C(=O)N(C)C)n(Cc4ccc(Cl)c(C(F)(F)F)c4)c3C[C@H]2CN1C(=O)c1ccccc1; 1.17
O=C1c2ccccc2[C@](Cc2ccccc2I)(C(=O)NCCN2CCOCC2)[C@H](c2ccc(CO)cc2)N1Cc1ccccc1C(F)(F)F; 0.218

**Q:** Identify measured composite z-score associated with `CCCNC(=O)[C@@]1(Sc2ccc(C)cc2)CC(=O)N(Cc2cc(C(F)(F)F)cc(C(F)(F)F)c2)[C@@H]1c1ccc(CO)cc1`
**A:** 2.59

###

- Experiment: binders of probe aFSTL3 on microarray, primary screen, stem cell growth factor project, biochemical, small-molecule microarray, fluorescence 635/667 (AID 1064);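 note: measures binding of the biotinylated anti-FSTL3 antibody to printed compounds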
- Test conditions: higher = more signal
Outcome label depends on composite z-score relative to 0.2: at/above gives Criterion met, below gives Criterion not met.

CCCC[C@@H](O)C1=C(C)Cn2c(=O)n(-c3ccccc3)c(=O)n2[C@H]1CO; Criterion not met
CC(C)(C)OC(=O)CC[C@@]1(C(=O)N2CCOCC2)N=C(c2ccc(OCCCO)cc2)O[C@@H]1c1ccccc1CN=[N+]=[N-]; Criterion not met
COCCOC(=O)N1C(=O)[C@@]2(c3cc(C#CCCO)ccc31)[C@H](C(=O)N1CCN(c3ncccn3)CC1)[C@H]1C(=O)O[C@H](c3ccccc3)[C@H](c3ccccc3)N1[C@@H]2c1ccc(OCCO)cc1; Criterion not met
Cc1ccc(S[C@]2(C(=O)NC(C)C)CC(=O)N(Cc3ccccc3)[C@@H]2c2ccc(CO)cc2I)cc1; Criterion met
NCCCCCCNC(=O)[C@@H]1C[C@@H]2C(=O)NCC(=O)N2[C@@H]1c1cccc(OCCO)c1; Criterion met

**Q:** Confirm if composite z-score reported for the compound `C=C(CCCC)/C(=C/C[C@@H](OC(C)=O)c1cccc(OCCO)c1)c1cc(C(=O)OC)ccc1OC` is 0.2 or above.
**A:** Criterion met

**Q:** Hi, just wondering whether `COCCCNC(=O)[C@]1(Cc2ccccc2N=[N+]=[N-])N=C(c2ccc(OCCCO)cc2)O[C@@H]1c1ccccc1` shows composite z-score of 0.2 or higher.
**A:** Criterion met

**Q:** Tell me whether composite z-score is at least 0.2 here: `O=C1O[C@H](c2ccccc2)[C@H](c2ccccc2)N2[C@H]1[C@@H](C(=O)O)[C@]1(C(=O)Nc3ccccc31)[C@H]2c1ccc(OCCO)cc1`
**A:** Criterion not met

**Q:** Evaluate `C=CCN1C(=O)[C@]2(O[C@H](CCO)[C@@H]([Si](C)(C)c3ccc(OC)cc3)[C@@H]2C)c2cc(N3C(=O)c4ccccc4Oc4ccccc43)ccc21` : composite z-score at minimum 0.2?
**A:** Criterion not met

**Q:** composite z-score >= 0.2 for `C=CCNC(=O)[C@@H]1[C@H]2C(=O)O[C@H](c3ccccc3)[C@H](c3ccccc3)N2[C@H](c2ccc(O)cc2)[C@@]12C(=O)Nc1ccc(C#CC3=CCCCC3)cc12` ?
**A:** Criterion not met

**Q:** I'd appreciate it if you could say whether `COc1cccc(C)c1NC(=O)O[C@H]1[C@H](OC(=O)Nc2ccccc2)[C@@H](OC(=O)Nc2ccccc2)[C@@H](OC)O[C@@H]1CO` has composite z-score at least equal to 0.2.
**A:** Criterion not met

**Q:** Is composite z-score at least 0.2? Consider COc1cc2c(cc1O)C(C)N(Cc1sc3ccccc3c1Cl)CC2 (stereo not drawn)
**A:** Criterion met

**Q:** Could you please find out whether `COCCCNC(=O)[C@]1(Cc2ccccc2CN=[N+]=[N-])N=C(c2ccc(OCCCO)cc2)O[C@@H]1c1ccccc1N=[N+]=[N-]` has composite z-score that meets 0.2 or exceeds it?
**A:** Criterion met

**Q:** I'd appreciate it if you could say whether `COCCOC(=O)N1C(=O)[C@@]2(c3cc(C#CCC(C(=O)OC)C(=O)OC)ccc31)[C@H](C(=O)N1CCc3cc(OC)c(OC)cc3C1)[C@H]1C(=O)O[C@H](c3ccccc3)[C@H](c3ccccc3)N1[C@@H]2c1ccccc1OCCO` has composite z-score at least equal to 0.2.
**A:** Criterion not met

**Q:** Could you tell me if the measured composite z-score of `COc1ccc([Si](C)(C)[C@@H]2[C@@H](CC(=O)N3Cc4ccccc4C[C@H]3CO)O[C@]3(C(=O)N(Cc4ccc(I)cc4)c4ccccc43)[C@H]2C)cc1` reaches 0.2 or more?
**A:** Criterion not met
